- assayed-system: T1, ZFP SBS#945 (synthetic)
- T1 chain: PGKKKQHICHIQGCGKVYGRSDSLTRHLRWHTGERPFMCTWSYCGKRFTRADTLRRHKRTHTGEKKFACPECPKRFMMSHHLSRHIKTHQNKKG
- test-method-notes: EMSA
- test-conditions: tags: MBP fusion
measured-property: pKd
Scale for pKd: -log10 of concentration given in mol/L; no unit attached.

Documented pKd of GGTGCGGTG (dsDNA) DNA 1: GGTGCGGTG DNA 2: CACCGCACC : 10.57

Source: patent US20030068675
